# Test system: HCT-15 colon
# protocol text: NCI-60 one-dose screen, 48 h (100 = growth as untreated, 0 = no growth, -100 = all killed)
# measurement conditions: 10 µM unless noted
# Experimental: Growth inhibition of the HCT-15 human tumor cell line is measured as a screen for anti-cancer activity. Cells are grown in 96 well plates and exposed to the test compound for 48 hours. Compounds are tested at a single concentration, which is 10^-5 M for most compounds. The reported endpoint is percent growth (GI% or GIPRCNT), where numbers from 0 - 100% represent growth inhibition, and numbers from -100% - 0 represent cell death. For example, a value of 40 represents 60% growth inhibition. […]
The panel holds about 83,000 compounds, 20% with a hit somewhere; the sample as a whole holds those more often.
assay endpoint: growth (%)
Give a bare numeral; the unit % is implied.

Here's what some known entries look like.
molecule	experimental target	observed
COc1cc2oc(-c3cccc(C(=O)Nc4ccc(C)cc4)c3)cc(=O)c2c(OC)c1OC	HCT-15 colon	17.6
Cc1ccc(O)c(C(=O)c2ccccc2Cl)c1	HCT-15 colon	99.5
Nc1c(C(=O)c2ccc(Cl)s2)sc2nc3c(cc12)CCCC3	HCT-15 colon	107
CCOc1ccc(-c2nc3ccc(-c4nc5ccc(N6CCN(C)CC6)cc5[nH]4)cc3[nH]2)cc1OCC	HCT-15 colon	63.7
N#C/C(=C\c1ccc(Br)cc1)n1nnc2cc(Cl)c(Cl)cc21	HCT-15 colon	14
CCCc1cc(=O)oc2c3c(c4c(c12)OC(C)(C)C=C4)O[C@@H](C)[C@H](C)C3=O	HCT-15 colon	98.1

In the following, a different molecule is considered.
Field growth (entry `Fc1ccc(Nc2nc(Nc3ccc(-c4nc5ccccc5[nH]4)cc3)c3cn[nH]c3n2)cc1` ) reads -41.2

====

# Tested on: ACHN renal
# protocol text: NCI-60 one-dose screen, 48 h
# measurement conditions: 10 µM unless noted
Compounds without any hit were thinned out: in the full panel of roughly 83,000, 20% have a hit. The source made the active and inactive calls. Rule for the calls: active = growth percent below 10; inactive = the rest.
Mark one answer only. Choices: active, inactive

Study these solved cases before continuing.
compound	experimental target	assigned category
CCCCCCCCc1cc[n+](CC(=O)c2ccc(Br)cc2)cc1	ACHN renal	active
CCN(CC)CCOc1ccc(/C(=C(\C)c2ccc(F)c(OC)c2)c2ccc(Cl)cc2)cc1	ACHN renal	inactive
N=C(N)c1ccc(-c2ccc(/C=C/c3ccccc3)s2)cc1	ACHN renal	active

**Query** Each compound tested received a call. Report the one for `Cc1cccc(-c2cc(O)c(C(=O)N3CCOCC3)s2)c1` .
**Result** inactive

**Query** Kindly provide the recorded test outcome for the following compound: `O=[N+]([O-])c1ccc(-c2cc3c(Nc4ccc(Sc5nc6ccccc6s5)c(Cl)c4)ncnc3s2)cc1`
**Result** inactive

====

# System: MDA-MB-231 breast
# protocol text: NCI-60 one-dose screen, 48 h
# measurement conditions: 10 µM unless noted
# Protocol: Cells are grown in 96 well plates and exposed to the test compound for 48 hours. Compounds are tested at a single concentration, which is 10^-5 M for most compounds. The reported endpoint is percent growth (GI% or GIPRCNT), where numbers from 0 - 100% represent growth inhibition, and numbers from -100% - 0 represent cell death. For example, a value of 40 represents 60% growth inhibition. A value of 0 means no net growth occurred over the course of the experiment. […]
About 83,000 compounds went through this panel and 20% of them were active in at least one assay; those are over-represented in the sample as a whole. Calls of active or inactive are those of the source. The calls were made as follows: active = growth percent below 10; inactive = the rest.
Parameter call: string, one of 1 (active), 0 (inactive)

Reference set (6 entries):
compound	assigned category
C=C1C(=O)O[C@H]2[C@H]1CC/C(COC(=O)/C=C\C(=O)NCc1ccc(Cn3c(=O)sn(-c4ccc(Cl)cc4)c3=O)cc1)=C\CC[C@@]1(C)O[C@@H]21	1
COc1cc(-c2cccc([N+](=O)[O-])c2)c(-c2nc(-c3ccccc3)c(-c3ccccc3)n2C2CC2)cc1OC	0
Cl.Fc1c[c-]c(-c2ccccn2)c(F)c1.[Pt].c1ccc([PH+](C[PH+](c2ccccc2)c2ccccc2)c2ccccc2)cc1	1
Cc1csc(NC(=O)c2sc3nc(-c4cccs4)ccc3c2N)n1	0
CC(C)n1nc(C#Cc2cccc(O)c2)c2c(N)ncnc21	1
O=C(/C=C/C12c3ccccc3C(c3ccccc31)C1C(=O)NC(=O)C12)c1ccc(Cl)cc1 (stereo not drawn)	1

**Query** Hello, I am checking results. What call was entered for `C=C(C)[C@@H]1CC[C@]2(C(=O)NCC(=O)O)CC[C@]3(C)[C@H](CC[C@@H]4[C@@]5(C)Cc6c([nH]c7ccccc67)C(C)(C)[C@@H]5CC[C@]43C)[C@@H]12` ?
**Result** 0

**Query** Given O=C1Nc2ccccc2SC1C1SC(=S)N(Cc2ccccc2)C1=O (stereo not drawn) , state the outcome it received in this test.
**Result** 0
